The reported measurements were obtained from patent US4395417A.

- Measurement Target: Citrate Lyase (Mus musculus)
- Construct: 30.5 mg of citrate hydrolyzed/gm wet tissue/30 min; from tissue
- Sequence (Q91V92 whole entry): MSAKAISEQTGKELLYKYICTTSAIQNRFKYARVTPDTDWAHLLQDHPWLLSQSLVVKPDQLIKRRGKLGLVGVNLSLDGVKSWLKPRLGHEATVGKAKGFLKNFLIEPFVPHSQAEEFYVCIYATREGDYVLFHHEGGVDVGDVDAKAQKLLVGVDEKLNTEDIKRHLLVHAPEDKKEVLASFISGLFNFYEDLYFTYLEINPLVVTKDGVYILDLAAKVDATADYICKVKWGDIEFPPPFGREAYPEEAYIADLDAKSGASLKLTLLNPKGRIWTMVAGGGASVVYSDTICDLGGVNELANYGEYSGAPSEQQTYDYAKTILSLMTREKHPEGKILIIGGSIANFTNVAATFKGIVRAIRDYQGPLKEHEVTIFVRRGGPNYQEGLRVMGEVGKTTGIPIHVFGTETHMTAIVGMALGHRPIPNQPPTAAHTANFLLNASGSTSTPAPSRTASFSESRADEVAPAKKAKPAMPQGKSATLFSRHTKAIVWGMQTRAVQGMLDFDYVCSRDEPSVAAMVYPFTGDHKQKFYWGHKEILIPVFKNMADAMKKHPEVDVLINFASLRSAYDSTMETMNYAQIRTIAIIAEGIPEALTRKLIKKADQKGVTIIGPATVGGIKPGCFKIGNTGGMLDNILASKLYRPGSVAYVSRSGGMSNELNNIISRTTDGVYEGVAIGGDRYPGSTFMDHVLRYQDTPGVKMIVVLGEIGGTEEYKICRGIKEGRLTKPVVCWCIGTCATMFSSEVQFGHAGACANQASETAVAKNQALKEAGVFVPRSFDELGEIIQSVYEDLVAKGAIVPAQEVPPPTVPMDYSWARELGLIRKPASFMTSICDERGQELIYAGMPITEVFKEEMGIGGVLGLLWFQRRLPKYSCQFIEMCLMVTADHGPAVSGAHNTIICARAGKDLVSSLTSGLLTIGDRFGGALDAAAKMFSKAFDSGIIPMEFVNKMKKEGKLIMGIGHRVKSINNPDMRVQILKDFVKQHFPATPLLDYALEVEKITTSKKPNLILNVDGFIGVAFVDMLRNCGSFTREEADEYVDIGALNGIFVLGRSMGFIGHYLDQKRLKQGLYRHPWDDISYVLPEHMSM
- Test: In vitro effect on citrate lyase
- Assay type: biochemical
- Recorded Conditions: Table 2, N = 6, x ± S.D., control 30.5 mg of citrate hydrolyzed/gm wet tissue/30 min.
Could you mark each record yes (1) if its Citrate Lyase falls strictly under 60 % Control, and no (0) if it equals or exceeds it?

Example entries and their recorded answers appear below.
O=C(O)CCN1C(=O)c2ccccc2C1=O [3-N--Phthalimidopropionic Acid] ... no (0)
CC(=O)CN1C(=O)c2ccccc2C1=O [1-N--Phthalimidopropan-2-one] ... no (0)
CC(=O)CCN1C(=O)CCC1=O [1-N--Succinimidobutan-3-one] ... yes (1)
O=C1NC(=O)c2cccc3cccc1c23 [1,8-Naphthalimide] ... no (0)
O=C1NS(=O)(=O)c2ccccc21 [Saccharin] ... no (0)

Query block: In plain terms, does O=C1NC(=O)c2ccccc21 [Phthalimide] come in under 60 % Control for Citrate Lyase?
Result block: yes (1)

Query block: For this compound, is Citrate Lyase lower than 60 % Control? CCCCN1C(=O)c2ccccc2C1=O [N--n-Butylphthalimide]
Result block: no (0)

Query block: Please state whether Citrate Lyase is below 60 % Control for CC(=O)CCN1C(=O)c2ccccc2C1=O [1-N--Phthalimidobutan-3-one]
Result block: yes (1)

Query block: Identify whether the compound CC(=O)CCN1C(=O)c2ccccc2S1(=O)=O [1-N--(o-Benzosulfimido)butan-3-one] records Citrate Lyase below 60 % Control.
Result block: yes (1)

Query block: hey, is Citrate Lyase for O=C1CCC(=O)N1 [Succinimide] lower than 60 % Control or not?
Result block: yes (1)

* * *

- Measurement Target: Acetyl-CoA Carboxylase (Mus musculus, UniProt Q5SWU9)
- Construct: 32,010 dpm/gm wet tissue/30 min; from tissue
- Test: In vitro acetyl coenzyme A carboxylase activity (method of Greenspan and Lowenstein)
- Type: biochemical
- Recorded Conditions: Table 2, N = 6, x ± S.D., control 32,010 dpm/gm wet tissue/30 min.
Parameter: Acetyl-CoA Carboxylase (% Control)
Quick reminder: number only, in % Control, skip the unit.

# annotated cases, reported Acetyl-CoA Carboxylase shown
O=C(O)CCN1C(=O)c2ccccc2C1=O ... 18
CC(=O)CN1C(=O)c2ccccc2C1=O ... 24
CC(=O)CCN1C(=O)c2cccc3cccc(c23)C1=O ... 59
CC(=O)CCN1C(=O)CCC1=O ... 100
O=C1CCC(=O)N1 [Succinimide] ... 87
O=C1NC(=O)c2cccc3cccc1c23 [1,8-Naphthalimide] ... 106
O=C1NC(=O)c2ccccc21 [Phthalimide] ... 8
CCCCN1C(=O)c2ccccc2C1=O [N--n-Butylphthalimide] ... 76
O=C1NS(=O)(=O)c2ccccc21 ... 9
CC(=O)CCN1C(=O)c2ccccc2S1(=O)=O ... 12

Query block: Fill in: Acetyl-CoA Carboxylase of CC(=O)CCN1C(=O)c2ccccc2C1=O is ___
Result block: 17

* * *

- Measurement Target: Acetyl-CoA Synthetase (Mus musculus, UniProt Q9QXG4)
- Construct: gm wet tissue/30 min; from tissue
- Sequence (Q9QXG4 whole entry): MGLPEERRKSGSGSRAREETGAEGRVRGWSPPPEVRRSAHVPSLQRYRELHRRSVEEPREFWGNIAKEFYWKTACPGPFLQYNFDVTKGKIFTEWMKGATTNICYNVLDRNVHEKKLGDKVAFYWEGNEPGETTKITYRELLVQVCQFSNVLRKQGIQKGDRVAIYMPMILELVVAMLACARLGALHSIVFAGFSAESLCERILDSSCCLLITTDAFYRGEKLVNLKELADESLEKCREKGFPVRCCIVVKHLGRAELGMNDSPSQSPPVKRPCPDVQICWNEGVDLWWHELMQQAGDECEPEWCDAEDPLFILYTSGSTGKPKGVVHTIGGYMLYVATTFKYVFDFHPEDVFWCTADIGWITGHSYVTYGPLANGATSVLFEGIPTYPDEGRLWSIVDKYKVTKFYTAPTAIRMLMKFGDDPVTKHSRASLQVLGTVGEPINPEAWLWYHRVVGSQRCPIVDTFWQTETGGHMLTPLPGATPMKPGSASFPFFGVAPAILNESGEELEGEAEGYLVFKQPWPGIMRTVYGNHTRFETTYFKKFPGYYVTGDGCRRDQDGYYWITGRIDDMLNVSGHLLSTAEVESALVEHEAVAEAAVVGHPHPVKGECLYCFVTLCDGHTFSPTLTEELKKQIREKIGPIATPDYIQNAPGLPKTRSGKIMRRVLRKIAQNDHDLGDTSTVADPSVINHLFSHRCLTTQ
- Test: In vitro acetyl coenzyme A synthetase activity (method of Goodridge)
- Format: biochemical, mice
- Recorded Conditions: Table 3, N = 6, control 10.8 mg/g wet tissue
Each record is given satisfied if its reported in vitro AcCoA synthetase is strictly below 70 % Control. Records at or above 70 % Control are given not satisfied.

Illustrative cases are given below, each with its answer.
CC(=O)CN1C(=O)c2ccccc2C1=O ... satisfied
O=C(O)CCCN1C(=O)c2ccccc2C1=O ... satisfied
CC(=O)OCCCCN1C(=O)c2ccccc2C1=O [N--phthalimidobutan-1-ol acetate] ... not satisfied

Query block: Does the reported in vitro AcCoA synthetase of the following molecule sit strictly below 70 % Control? CC(=O)OCCCN1C(=O)c2ccccc2C1=O [N--phthalimidopropan-1-ol acetate]
Result block: not satisfied

Query block: Please let me know if CC(=O)OCCN1C(=O)c2ccccc2C1=O [N--phthalimidoethyl acetate] shows in vitro AcCoA synthetase below 70 % Control.
Result block: not satisfied

Query block: Lab log: compare recorded in vitro AcCoA synthetase with 70 % Control; is it strictly lower for O=C(O)CCCCCN1C(=O)c2ccccc2C1=O ?
Result block: satisfied

Query block: For O=C1NC(=O)c2ccccc21.[K] [potassium phthalimide] , is the recorded in vitro AcCoA synthetase below the cut-off of 70 % Control?
Result block: not satisfied

Query block: Does the reported in vitro AcCoA synthetase of the following molecule sit strictly below 70 % Control? O=C(O)CCCCN1C(=O)c2ccccc2C1=O
Result block: not satisfied

Query block: Answer whether the molecule CC(=O)CCCCCN1C(=O)c2ccccc2C1=O has in vitro AcCoA synthetase strictly less than 70 % Control
Result block: not satisfied

* * *

- Test system: serum cholesterol
- Test: Serum cholesterol of male CF1 mice (Liebermann-Burchard reaction)
- Assay type: in vivo
- Recorded Conditions: Mus musculus, ip, 216 h; Table 3; mice, N = 6, 9th day; control 115 mg %; read-out: serum cholesterol, 9th day
Parameter: response vs control in vivo at 20 mg/kg/day (%)
Give the number; % is assumed, so skip it.

Below are worked cases with known answers.
CC(=O)OCCN1C(=O)c2ccccc2C1=O [N--phthalimidoethyl acetate] ... 93
CN1C(=O)c2ccccc2C1=O [N--methylphthalimide] ... 74
CCCCCCCCN1C(=O)c2ccccc2C1=O [N--n-octylphthalimide] ... 101

Query block: Reported response vs control in vivo at 20 mg/kg/day, compound O=C1NC(=O)c2ccccc21.[K] [potassium phthalimide] : ____
Result block: 63

Query block: Need response vs control in vivo at 20 mg/kg/day of O=C(O)CN1C(=O)c2ccccc2C1=O , thanks.
Result block: 76

Query block: Request the reported response vs control in vivo at 20 mg/kg/day associated with CC(=O)OCCCCN1C(=O)c2ccccc2C1=O [N--phthalimidobutan-1-ol acetate]
Result block: 93

Query block: Sample CC(=O)CCCCN1C(=O)c2ccccc2C1=O — what was its response vs control in vivo at 20 mg/kg/day?
Result block: 65

Query block: Fill blank: measured response vs control in vivo at 20 mg/kg/day of the compound CCCCCCN1C(=O)c2ccccc2C1=O [N--n-hexylphthalimide] is ____.
Result block: 96

Query block: Which value of response vs control in vivo at 20 mg/kg/day has been reported for O=C(O)CCCCCN1C(=O)c2ccccc2C1=O in the records?
Result block: 81

Query block: Any idea what response vs control in vivo at 20 mg/kg/day was measured for CC(=O)OCN1C(=O)c2ccccc2C1=O [N--phthalimidomethyl acetate] ?
Result block: 61

Query block: Would you mind telling me what response vs control in vivo at 20 mg/kg/day value was observed for CCCCCCCN1C(=O)c2ccccc2C1=O [N--n-heptylphthalimide] ?
Result block: 99

Query block: Which value of response vs control in vivo at 20 mg/kg/day has been reported for CC(=O)CCN1C(=O)c2ccccc2C1=O in the records?
Result block: 67

Query block: Fill in: response vs control in vivo at 20 mg/kg/day of CC(=O)OCCCN1C(=O)c2ccccc2C1=O [N--phthalimidopropan-1-ol acetate] is ___
Result block: 102

Query block: Name the reported response vs control in vivo at 20 mg/kg/day value associated with the compound CCCCN1C(=O)c2ccccc2C1=O [N--n-Butylphthalimide]
Result block: 72

Query block: GET /values?readout=response vs control in vivo at 20 mg/kg/day&item= O=C(O)CCCCN1C(=O)c2ccccc2C1=O
Result block: 83

Query block: # get_value(readout='response vs control in vivo at 20 mg/kg/day', item= CCCN1C(=O)c2ccccc2C1=O [N--n-propylphthalimide] )
Result block: 96

Query block: Any idea what its response vs control in vivo at 20 mg/kg/day is? The compound is CCN1C(=O)c2ccccc2C1=O [N--ethylphthalimide]
Result block: 83

Query block: I'd like to know its response vs control in vivo at 20 mg/kg/day. The compound in question is O=C(O)CCCN1C(=O)c2ccccc2C1=O
Result block: 80

Query block: Please report the recorded response vs control in vivo at 20 mg/kg/day for CC(=O)CCCCCN1C(=O)c2ccccc2C1=O .
Result block: 71

* * *

- Measurement Target: Fatty Acid Synthetase (Mus musculus)
- Construct: gm wet tissue/30 min; from tissue
- Sequence (P19096 whole entry): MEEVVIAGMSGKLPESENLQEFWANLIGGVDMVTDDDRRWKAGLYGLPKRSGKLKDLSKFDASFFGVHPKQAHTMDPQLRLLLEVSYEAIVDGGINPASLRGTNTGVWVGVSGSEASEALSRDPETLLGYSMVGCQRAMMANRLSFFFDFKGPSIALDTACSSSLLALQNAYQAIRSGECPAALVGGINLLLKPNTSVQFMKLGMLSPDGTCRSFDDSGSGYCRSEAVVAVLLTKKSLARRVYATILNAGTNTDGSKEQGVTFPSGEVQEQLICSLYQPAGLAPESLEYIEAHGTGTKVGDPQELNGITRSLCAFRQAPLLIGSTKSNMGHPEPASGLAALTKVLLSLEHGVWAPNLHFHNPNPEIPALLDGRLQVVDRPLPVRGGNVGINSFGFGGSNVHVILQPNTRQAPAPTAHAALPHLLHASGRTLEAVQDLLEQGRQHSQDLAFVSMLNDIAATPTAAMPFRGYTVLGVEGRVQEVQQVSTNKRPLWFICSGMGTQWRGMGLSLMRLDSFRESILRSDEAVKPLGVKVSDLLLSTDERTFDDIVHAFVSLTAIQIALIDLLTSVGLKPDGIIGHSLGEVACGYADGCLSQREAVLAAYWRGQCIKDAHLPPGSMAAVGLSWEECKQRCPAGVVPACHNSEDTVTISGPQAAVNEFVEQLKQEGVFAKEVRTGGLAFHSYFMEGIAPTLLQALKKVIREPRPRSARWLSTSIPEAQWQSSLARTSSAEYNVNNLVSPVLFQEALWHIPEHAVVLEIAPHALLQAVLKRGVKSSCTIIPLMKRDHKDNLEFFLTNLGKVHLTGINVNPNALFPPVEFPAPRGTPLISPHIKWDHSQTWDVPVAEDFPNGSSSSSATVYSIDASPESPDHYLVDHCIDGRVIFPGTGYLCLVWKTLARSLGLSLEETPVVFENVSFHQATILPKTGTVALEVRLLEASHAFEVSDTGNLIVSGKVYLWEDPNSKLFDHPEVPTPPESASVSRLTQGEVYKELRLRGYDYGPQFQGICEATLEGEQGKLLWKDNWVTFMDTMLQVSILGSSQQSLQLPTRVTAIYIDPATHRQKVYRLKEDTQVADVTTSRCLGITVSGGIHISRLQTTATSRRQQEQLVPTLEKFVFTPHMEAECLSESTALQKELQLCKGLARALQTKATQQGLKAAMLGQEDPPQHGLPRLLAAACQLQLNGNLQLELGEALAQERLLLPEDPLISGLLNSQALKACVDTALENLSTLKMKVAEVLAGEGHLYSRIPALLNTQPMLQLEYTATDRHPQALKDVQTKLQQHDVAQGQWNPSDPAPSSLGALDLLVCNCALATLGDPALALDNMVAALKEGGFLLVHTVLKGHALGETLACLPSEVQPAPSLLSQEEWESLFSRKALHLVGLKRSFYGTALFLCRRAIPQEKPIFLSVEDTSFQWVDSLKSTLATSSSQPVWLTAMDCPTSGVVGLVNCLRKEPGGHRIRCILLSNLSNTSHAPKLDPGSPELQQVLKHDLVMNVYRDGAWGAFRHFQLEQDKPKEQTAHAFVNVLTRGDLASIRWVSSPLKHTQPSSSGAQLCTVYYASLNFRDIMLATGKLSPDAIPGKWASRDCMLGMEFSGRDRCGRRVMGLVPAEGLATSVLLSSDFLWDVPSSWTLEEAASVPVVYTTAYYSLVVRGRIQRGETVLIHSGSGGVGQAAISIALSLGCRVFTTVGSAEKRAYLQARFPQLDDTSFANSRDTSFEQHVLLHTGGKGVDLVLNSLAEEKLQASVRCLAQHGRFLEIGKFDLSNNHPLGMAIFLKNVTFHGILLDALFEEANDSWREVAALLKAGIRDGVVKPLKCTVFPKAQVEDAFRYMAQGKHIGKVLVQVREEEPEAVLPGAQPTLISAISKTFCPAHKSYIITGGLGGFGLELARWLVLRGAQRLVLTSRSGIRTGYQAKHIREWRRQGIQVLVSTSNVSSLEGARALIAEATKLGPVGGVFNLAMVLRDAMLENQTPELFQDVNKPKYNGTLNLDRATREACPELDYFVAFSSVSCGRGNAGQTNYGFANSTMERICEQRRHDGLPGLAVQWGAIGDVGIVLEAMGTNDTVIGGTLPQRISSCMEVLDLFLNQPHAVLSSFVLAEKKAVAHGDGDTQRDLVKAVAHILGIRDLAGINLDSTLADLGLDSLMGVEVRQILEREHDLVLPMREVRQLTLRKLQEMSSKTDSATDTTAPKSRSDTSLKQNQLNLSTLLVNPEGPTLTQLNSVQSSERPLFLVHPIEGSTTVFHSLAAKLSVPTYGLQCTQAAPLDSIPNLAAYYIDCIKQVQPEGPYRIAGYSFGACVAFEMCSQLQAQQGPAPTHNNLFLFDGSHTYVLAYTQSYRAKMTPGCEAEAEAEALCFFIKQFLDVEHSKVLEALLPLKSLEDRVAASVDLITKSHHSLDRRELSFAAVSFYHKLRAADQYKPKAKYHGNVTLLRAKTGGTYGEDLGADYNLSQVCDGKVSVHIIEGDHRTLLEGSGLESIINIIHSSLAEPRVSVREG
- Test: In vitro effect on fatty acid synthetase
- Format: biochemical
- Recorded Conditions: Table 2, N = 6, x ± S.D.
This listing pairs compounds with measured Fatty Acid Synthetase.

Here is how some compounds turned out for Fatty Acid Synthetase.
CCCCN1C(=O)c2ccccc2C1=O [N--n-Butylphthalimide] ... 75 ± 10 % Control
O=C1NS(=O)(=O)c2ccccc21 [Saccharin] ... 93 ± 5 % Control
CC(=O)CN1C(=O)c2ccccc2C1=O [1-N--Phthalimidopropan-2-one] ... 91 ± 9 % Control
O=C(O)CCN1C(=O)c2ccccc2C1=O [3-N--Phthalimidopropionic Acid] ... 107 ± 7 % Control
CC(=O)CCN1C(=O)CCC1=O [1-N--Succinimidobutan-3-one] ... 81 ± 7 % Control
CC(=O)CCN1C(=O)c2ccccc2C1=O [1-N--Phthalimidobutan-3-one] ... 109 ± 7 % Control
O=C1CCC(=O)N1 [Succinimide] ... 98 ± 9 % Control
O=C1NC(=O)c2ccccc21 [Phthalimide] ... 105 ± 8 % Control
CC(=O)CCN1C(=O)c2ccccc2S1(=O)=O [1-N--(o-Benzosulfimido)butan-3-one] ... 104 ± 7 % Control
O=C1NC(=O)c2cccc3cccc1c23 [1,8-Naphthalimide] ... 86 ± 8 % Control

Consider the record given below.
Query block: # query: Fatty Acid Synthetase of entry CC(=O)CCN1C(=O)c2cccc3cccc(c23)C1=O [1-N--(1,8-Naphthalimido)butan-3-one]
Result block: 103 ± 4 % Control
